List of normalized growth values.
Test: chemical genetic growth profiling, strain panel (AID 1159580);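 further: tested at 20 µM; growth read once vehicle control cultures reached saturation at 30 °C; 1 = growth at the plate median or of vehicle wells; lower values mean less growth of the strain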
Conditions: S. cerevisiae deletion strains, growth OD, locus YLR268W, strain sec22, stronger effect = lower value
In all, about 5,500 compounds went through this assay and about 2,000 (36%) were called active. Another 18% or so got no clear call; they are omitted. The list shows a part of the results.
I only need the number, thanks.

Guide cases for normalized growth, answers given:
[[record]]
compound = "CC1(C)[C@@H]2CC[C@@]1(C)C(=O)C2"
observed_property = "normalized growth"
quantitative_result = 0.987

[[record]]
compound = "CC1(C)Oc2ccc3ccc(=O)oc3c2CC1O (stereo not drawn)"
observed_property = "normalized growth"
quantitative_result = 1.05

[[record]]
compound = "COC1=CC(=O)C=C(OC)C1=O"
observed_property = "normalized growth"
quantitative_result = 0.989

[[record]]
compound = "Nc1ccc(S(=O)(=O)Nc2ncccn2)cc1"
observed_property = "normalized growth"
quantitative_result = 1.05

[[record]]
compound = "CC1(C)C(O)CC(=O)C2(C)C1CC(O)C1(C)C2CCC2(C)C(c3ccoc3)OC(=O)C3OC321 (stereo not drawn)"
observed_property = "normalized growth"
quantitative_result = 1.01


If you can, please state the reported normalized growth value of C[C@H]1O[C@@H](O[C@H]2[C@@H](O)C[C@H](O[C@H]3[C@@H](O)C[C@H](O[C@H]4CC[C@]5(C)C6CC[C@]7(C)[C@@H](C8=CC(=O)OC8)CC[C@]7(O)C6CC[C@@H]5C4)O[C@@H]3C)O[C@@H]2C)C[C@H](O)[C@@H]1O (stereo partly drawn) .
0.988

Recorded normalized growth of NS(=O)(=O)c1cc2c(cc1C(F)(F)F)NC(Cc1ccccc1)NS2(=O)=O (stereo not drawn) , please.
0.999

// query normalized growth value for entry O=C(O)CN(CCN(CC(=O)O)CC(=O)O)CC(=O)O
0.801

Requested field: normalized growth. Item: C[C@H]1O[C@@H](O[C@H]2[C@@H](O)C[C@H](O[C@H]3[C@@H](O)C[C@H](O[C@H]4CC[C@]5(C)C6C[C@@H](O)[C@]7(C)[C@@H](C8=CC(=O)OC8)CC[C@]7(O)C6CC[C@@H]5C4)O[C@@H]3C)O[C@@H]2C)C[C@H](O)[C@@H]1O (stereo partly drawn)
0.959

Param item = CC12CCC3C(CCC4(O)CC(O)CCC34/C=N/NC(N)=O)C1(O)CCC2C1=CC(=O)OC1 (stereo not drawn) ; retrieve measured normalized growth.
1.02

Record request: normalized growth value, item NCCCN
0.979

Please give the measured normalized growth for this compound: Cc1cc(N)c2ccccc2[n+]1CCCCCCCCCC[n+]1c(C)cc(N)c2ccccc21
0.0712

# get_value(readout='normalized growth', item= COc1ccc(-c2cc(=O)c3c(O)cc(O)c(-c4cc(-c5cc(=O)c6c(O)cc(O)cc6o5)ccc4OC)c3o2)cc1 )
0.985

Please report the recorded normalized growth for C/C=C(/C)C(=O)O[C@@H]1Cc2c(ccc3ccc(=O)oc23)OC1(C)C .
1

What normalized growth value was documented for this compound, C/C=C/CC(C)C(O)C1C(=O)NC(CC)C(=O)N(C)CC(=O)N(C)C(CC(C)C)C(=O)NC(C(C)C)C(=O)N(C)C(CC(C)C)C(=O)NC(C)C(=O)NC(C)C(=O)N(C)C(CC(C)C)C(=O)N(C)C(CC(C)C)C(=O)N(C)C(C(C)C)C(=O)N1C (stereo not drawn) ?
1.01

// query normalized growth value for entry COc1cc(C)c2c(=O)c3c(O)cc(O)cc3oc2c1
0.941

Reported normalized growth for O=C(CCCN1CCC2(CC1)C(=O)NCN2c1ccccc1)c1ccc(F)cc1 : what is it?
0.93

So what's the measured normalized growth for this one? COc1cc(C)c2c(=O)c3c(O)cc(OC)cc3oc2c1
0.987
